Where these numbers come from: ChEMBL document CHEMBL4043164

Consider the following compounds; for each one, report its pIC50.
Test system: MCF7
Assay: Cytotoxicity against human MCF7 cells assessed as reduction in cell viability incubated for 24 hrs by CCK8 assay
Settings: MCF7, 24 h
One number for each entry, as −log10 of the molar value.

Please review the entries below; each comes with its answer.
>>> print(df.to_string())
                              smiles_record  experimental_readout  test_result
0  COC(=O)C[C@@H]1CS[C@]2(C(=O)Nc3cccc(Br)c32)[C@H](c2ccc(Br)cc2)[C@H]1CNc1ccccc1F                 pIC50         5.44
1  COc1ccc(C2=N[C@H](c3ccc(Cl)cc3)[C@H](c3ccc(Cl)cc3)N2C(=O)N2CCNC(=O)C2)c(OC(C)C)c1                 pIC50         4.83
2  O=C1Nc2cccc(Br)c2[C@@]12SC[C@@H](CCO)[C@H](CO)[C@H]2c1ccc(Br)cc1                 pIC50         4.87

The record that follows has no pIC50 shown yet.
Requested read-out: pIC50. Entry: COC(=O)C[C@@H]1CS[C@]2(C(=O)Nc3cccc(Br)c32)[C@H](c2ccc(Br)cc2)[C@H]1CNc1cccc(F)c1
5.55
